# system: T1, hIL-17A (human, UniProt Q16552 24-155)
# T1 construct: Bought protein
# T1 sequence (Q16552 24-155 limits assumed): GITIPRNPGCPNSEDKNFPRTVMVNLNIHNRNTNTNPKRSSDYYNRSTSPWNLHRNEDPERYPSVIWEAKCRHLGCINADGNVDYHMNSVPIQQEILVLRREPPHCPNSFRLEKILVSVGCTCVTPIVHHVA
# measurement description: ELISA on captured hIL-17A, cleared E. coli lysates
observation type: binding result

binder: V5 expressed in E. coli (Trx-6xHis-tagged) (receptor, Tested as cleared E. coli lysate; not shown: N-terminal thioredoxin (Trx)-6xHistidine tag of pET32) LRLLDHRALVCSQPGLNCTVKNSTCLDDSWIHPRNLTPSSPKNLQIQLHFAHTQQGDLLPVAHIEWTLQTDASILYLEGAELSVLQLNTNERLCVKFEFLSKLRHHHKRWRFTFSHFVVDPDQEYEVTVHHLPKPIPDGDPNHQSKNFLVPDCEHARMKVTTPCMSSGSLWDPNITVETLEAHQLRVSFTLWNESTHYQILLTSFPHMENHSCFEHMHHIPAPRPEEFHQRSNVTLTLRNLKGCCRHQVQIQPFFSSCLNDCLRHSATVSCPEMPDTPEPIPDYMPLW
result: binds
